target_or_test_system: A2BR (Homo sapiens, UniProt P29275)
Sequence (P29275 whole entry): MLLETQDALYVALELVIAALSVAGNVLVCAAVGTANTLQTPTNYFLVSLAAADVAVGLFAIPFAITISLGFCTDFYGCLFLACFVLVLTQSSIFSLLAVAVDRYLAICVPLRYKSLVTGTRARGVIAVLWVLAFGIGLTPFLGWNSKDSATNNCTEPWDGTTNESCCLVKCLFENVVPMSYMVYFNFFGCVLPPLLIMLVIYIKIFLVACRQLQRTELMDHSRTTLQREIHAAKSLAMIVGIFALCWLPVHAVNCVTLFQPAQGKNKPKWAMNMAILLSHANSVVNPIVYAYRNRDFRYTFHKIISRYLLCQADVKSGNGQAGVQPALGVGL
assay_info: A2BR potency (KB), Table 1
Assay type: biochemical
This section presents compounds with their documented Kb values.

Query block: Data request, read-out Kb, for `COc1cccc2c(-c3cn(Cc4ccn(CC(C)(C)O)n4)nn3)nc(N)nc12`
Result block: < 100 nM

Query block: Data request, read-out Kb, for `COc1cccc2c(-c3cn(Cc4ccn(C(C)C)n4)nn3)nc(N)nc12`
Result block: < 100 nM

Query block: Data request, read-out Kb, for `COc1cccc2c(-c3cn(Cc4ccn(C(C)(C)CO)n4)nn3)nc(N)nc12`
Result block: < 100 nM

Query block: Data request, read-out Kb, for `COc1cccc2c(-c3cn(Cc4ccn(CC(=O)N[C@@H]5CCOC5)n4)nn3)nc(N)nc12`
Result block: 100 to 1000 nM

Query block: Data request, read-out Kb, for `CCn1ccc(Cn2cc(-c3nc(N)nc4c(OC)cccc34)nn2)n1`
Result block: < 100 nM

Query block: Data request, read-out Kb, for `CCOc1cccc2c(-c3cn(Cc4ccn(C5CC5)n4)nn3)nc(N)nc12`
Result block: 100 to 1000 nM

Query block: Data request, read-out Kb, for `COc1cccc2c(-c3cn(Cc4ccn(C5CC5)n4)nn3)nc(N)nc12`
Result block: < 100 nM

Query block: Data request, read-out Kb, for `COc1cccc2c(-c3cn(Cc4ccn(CC(=O)O)n4)nn3)nc(N)nc12`
Result block: 100 to 1000 nM

Query block: Data request, read-out Kb, for `COc1c(F)ccc2c(-c3cn(Cc4ccnn4C(C)C)nn3)nc(N)nc12`
Result block: < 100 nM

* * *

target_or_test_system: A2BR (Homo sapiens)
assay_info: A2BR potency (KB), Table 1
Assay type: biochemical
This section presents compounds with their documented Kb values.

- COc1cccc2c(-c3cn(Cc4ccn([C@@H]5CCOC5)n4)nn3)nc(N)nc12: < 0.1 µM
- CCOc1cccc2c(-c3cn(Cc4ccn(C(C)C)n4)nn3)nc(N)nc12: 0.1 to 1 µM
- COc1cccc2c(-c3cn(Cc4ccn(C)n4)nn3)nc(N)nc12: < 0.1 µM

Query block: Recall the recorded Kb for `CC(C)n1ccc(Cn2cc(-c3nc(N)nc4c(Cl)cccc34)nn2)n1` with A2BR (Homo sapiens) and state it.
Result block: < 0.1 µM

Query block: Recall the recorded Kb for `COc1cccc2c(-c3cn(Cc4ccn(CC(N)=O)n4)nn3)nc(N)nc12` with A2BR (Homo sapiens) and state it.
Result block: < 0.1 µM

Query block: Recall the recorded Kb for `COc1cccc2c(-c3cn(Cc4cc(C(C)(C)O)[nH]n4)nn3)nc(N)nc12` with A2BR (Homo sapiens) and state it.
Result block: < 0.1 µM
